- testName: Early bioavailability determination (plasma PK)
- Assay type: in vivo, Sprague Dawley rats
- assayContext: male, Sprague Dawley, plasma; IV, 2 mg/kg, rat, mean; read-out: AUC24
quantityName: AUC (ng·h/mL)
Please state the figure in ng·h/mL; there is no need to write the unit.

Query: Note down AUC recorded for Cc1ccnc(Nc2cccc(-c3cnc(N4CCNC(=O)C45CC5)o3)c2)n1 [Compound 001]
Reply: 1060

* * *

- testedTarget: TEL-SYK (Homo sapiens)
- testName: Cell-based proliferation assay on BaF3 model, TEL-SYK
- assayContext: read-out: TEL-SYK IC50
quantityName: IC50 (µM)
Please state the figure in µM; there is no need to write the unit.

Query: Note down IC50 recorded for Cc1ccnc(Nc2cccc(-c3cnc(N4CCNC(=O)C45CC5)o3)c2)n1
Reply: 0.27

* * *

- testedTarget: Jak1 (Homo sapiens (Human))
- Sequence (P23458 whole entry): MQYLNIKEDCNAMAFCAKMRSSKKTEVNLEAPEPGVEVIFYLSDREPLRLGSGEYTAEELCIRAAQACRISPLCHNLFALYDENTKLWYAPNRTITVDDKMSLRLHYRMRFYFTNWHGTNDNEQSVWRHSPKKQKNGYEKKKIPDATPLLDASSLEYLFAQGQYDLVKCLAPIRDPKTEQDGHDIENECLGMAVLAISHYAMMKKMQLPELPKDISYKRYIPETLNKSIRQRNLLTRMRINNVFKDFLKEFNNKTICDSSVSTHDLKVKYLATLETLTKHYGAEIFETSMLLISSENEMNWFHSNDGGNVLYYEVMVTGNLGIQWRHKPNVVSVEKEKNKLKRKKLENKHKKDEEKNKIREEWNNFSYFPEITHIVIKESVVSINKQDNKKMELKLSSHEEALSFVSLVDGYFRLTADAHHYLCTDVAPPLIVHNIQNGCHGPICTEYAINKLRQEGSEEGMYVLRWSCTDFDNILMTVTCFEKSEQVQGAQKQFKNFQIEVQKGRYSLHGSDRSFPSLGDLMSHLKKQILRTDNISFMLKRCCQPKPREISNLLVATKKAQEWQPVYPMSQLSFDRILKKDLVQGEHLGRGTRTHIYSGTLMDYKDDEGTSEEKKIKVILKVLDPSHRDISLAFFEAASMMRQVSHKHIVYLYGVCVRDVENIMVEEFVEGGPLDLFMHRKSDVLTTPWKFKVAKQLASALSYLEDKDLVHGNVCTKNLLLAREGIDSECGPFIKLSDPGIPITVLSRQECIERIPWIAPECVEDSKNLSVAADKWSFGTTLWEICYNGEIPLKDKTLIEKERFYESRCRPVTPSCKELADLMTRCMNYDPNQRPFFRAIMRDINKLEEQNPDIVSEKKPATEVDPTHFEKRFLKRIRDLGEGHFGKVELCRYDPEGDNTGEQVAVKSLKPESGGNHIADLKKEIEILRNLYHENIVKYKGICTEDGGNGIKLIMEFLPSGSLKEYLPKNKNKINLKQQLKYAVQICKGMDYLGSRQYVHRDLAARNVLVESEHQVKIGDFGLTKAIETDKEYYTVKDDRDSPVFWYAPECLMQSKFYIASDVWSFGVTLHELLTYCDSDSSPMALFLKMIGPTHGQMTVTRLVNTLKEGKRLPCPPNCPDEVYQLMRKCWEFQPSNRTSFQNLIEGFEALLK
quantityName: IC50 (µM)
Please state the figure in µM; there is no need to write the unit.

Query: Provide Jak1 (Homo sapiens (Human)) IC50 reading for Cc1ccnc(Nc2cccc(-c3cnc(N4CCNC(=O)C45CC5)o3)c2)n1 .
Reply: 3.4

* * *

- testedTarget: KIT D816V (Homo sapiens (Human), UniProt P10721, D816V)
- Sequence (P10721 26-976 D816V): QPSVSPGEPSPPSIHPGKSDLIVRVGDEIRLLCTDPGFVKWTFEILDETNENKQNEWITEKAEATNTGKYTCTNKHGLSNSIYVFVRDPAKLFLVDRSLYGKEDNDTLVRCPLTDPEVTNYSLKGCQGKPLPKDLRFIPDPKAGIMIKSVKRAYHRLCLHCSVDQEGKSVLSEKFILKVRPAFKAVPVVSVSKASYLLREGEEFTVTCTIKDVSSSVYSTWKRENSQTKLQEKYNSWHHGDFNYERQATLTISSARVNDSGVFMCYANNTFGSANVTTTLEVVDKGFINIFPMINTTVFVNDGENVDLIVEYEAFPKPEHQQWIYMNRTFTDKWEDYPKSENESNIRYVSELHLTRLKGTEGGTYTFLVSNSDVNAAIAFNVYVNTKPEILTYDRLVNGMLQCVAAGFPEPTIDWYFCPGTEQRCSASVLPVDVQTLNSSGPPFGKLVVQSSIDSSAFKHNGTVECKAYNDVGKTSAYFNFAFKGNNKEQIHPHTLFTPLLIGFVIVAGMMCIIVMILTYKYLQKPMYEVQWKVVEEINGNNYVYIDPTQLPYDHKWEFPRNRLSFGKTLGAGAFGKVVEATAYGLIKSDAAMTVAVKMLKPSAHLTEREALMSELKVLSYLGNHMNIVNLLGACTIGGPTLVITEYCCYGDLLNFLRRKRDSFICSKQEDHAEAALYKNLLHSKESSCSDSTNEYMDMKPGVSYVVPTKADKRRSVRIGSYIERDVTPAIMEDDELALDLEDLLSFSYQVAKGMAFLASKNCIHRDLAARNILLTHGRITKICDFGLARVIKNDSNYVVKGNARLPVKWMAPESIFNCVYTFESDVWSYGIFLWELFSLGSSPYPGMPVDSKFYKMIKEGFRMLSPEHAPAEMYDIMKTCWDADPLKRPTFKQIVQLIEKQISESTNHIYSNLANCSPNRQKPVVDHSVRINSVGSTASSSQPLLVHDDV
- testName: Cell-based proliferation assay on BaF3 model, KIT D816V
quantityName: pIC50
Just so you know, pIC50 here is -log10 of the concentration in molar units; reply with that number alone.

Query: Note down pIC50 recorded for Cc1ccnc(Nc2cccc(-c3cnc(N4CCNC(=O)C45CC5)o3)c2)n1 [Compound 001]
Reply: 5.00
